assay: method code SF-CR, from DOI: 10.1016/s0008-6215(00)84247-0, PMID: 18283; conditions: pH 7.5
quantity measured: logD

Worked cases, logD given:
[[record]]
molecule = "CCCCO[C@@H]1O[C@H](CO)[C@H](O)[C@H](O)[C@H]1O"
numeric_value = -1.04

[[record]]
molecule = "CCCCCCCS[C@@H]1O[C@H](CO)[C@H](O)[C@H](O)[C@H]1O"
numeric_value = 1.5

[[record]]
molecule = "CC(C)S[C@@H]1O[C@H](CO)[C@H](O)[C@H](O)[C@H]1O"
numeric_value = -1.26

[[record]]
molecule = "CCCS[C@@H]1O[C@H](CO)[C@H](O)[C@H](O)[C@H]1O"
numeric_value = -1.18

[[record]]
molecule = "CCCCS[C@@H]1O[C@H](CO)[C@H](O)[C@H](O)[C@H]1O"
numeric_value = -0.54

[[record]]
molecule = "CCCCCCCCS[C@@H]1O[C@H](CO)[C@H](O)[C@H](O)[C@H]1O"
numeric_value = 2.13


1. CCCCCCCO[C@@H]1O[C@H](CO)[C@H](O)[C@H](O)[C@H]1O
2. CCCCCOC1C(O)C(O)OC(CO)C1O (stereo unspecified)
3. CCCCCS[C@@H]1O[C@H](CO)[C@H](O)[C@H](O)[C@H]1O
4. CCCCCO[C@@H]1O[C@H](CO)[C@H](O)[C@H](O)[C@H]1O
5. CCCCCOC1C(O)C(S)OC(CO)C1O (stereo unspecified)
Thanks in advance: please rank these 5 entries by logD, highest to lowest. To answer, write out the labels according to the requested order.
1, 3, 5, 4, 2
(1: 0.73, 3: 0.39, 5: -0.18, 4: -0.42, 2: -0.8)

---

assay: method code SF-CR, from DOI: 10.1016/s0008-6215(00)84247-0, PMID: 18283; conditions: pH 7.5
quantity measured: logD

a. CCCCCCO[C@@H]1O[C@H](CO)[C@H](O)[C@H](O)[C@H]1O
b. CCCCCCCCO[C@@H]1O[C@H](CO)[C@H](O)[C@H](O)[C@H]1O
Hey, which is lower on measured logD, a or b ? Label of pick, please.
a
(a: 0.16, b: 1.46)

---

test: method code SF-AS, from DOI: 10.1016/s0008-6215(00)84247-0, PMID: 18283; conditions: pH 7.5
quantity measured: logD

Worked cases, logD given:
[[record]]
compound = "OC[C@H]1O[C@@H](SCc2ccccc2)[C@H](O)[C@@H](O)[C@H]1O"
numeric_value = -0.47

[[record]]
compound = "OC[C@H]1O[C@@H](Sc2ccccc2)[C@H](O)[C@@H](O)[C@H]1O"
numeric_value = -0.56


1. OCC1OC(SCCCc2ccccc2)C(O)C(O)C1O (centres undefined)
2. OC[C@H]1O[C@@H](SCCc2ccccc2)[C@H](O)[C@@H](O)C1O (stereo in doubt)
Hey, which is lower on measured logD, 1 or 2 ? Label of pick, please.
2

---

experiment: method code SF-CR, from DOI: 10.1016/s0008-6215(00)84247-0, PMID: 18283; settings: pH 7.5
quantity measured: logD

[[record]]
compound = "CCCO[C@@H]1O[C@H](CO)[C@H](O)[C@H](O)[C@H]1O"
numeric_value = -1.66


I. CCS[C@@H]1O[C@H](CO)[C@H](O)[C@H](O)[C@H]1O
II. CCCCCCS[C@@H]1O[C@H](CO)[C@H](O)[C@H](O)[C@H]1O
III. CCOC1O[C@H](CO)[C@H](O)[C@H](O)[C@H]1O (stereo in doubt)
Thanks in advance: please rank these 3 entries by logD, highest to lowest. To answer, write out the labels according to the requested order.
II, I, III
(II: 0.86, I: -1.51, III: -2.28)

Cited source: the SangsterLogP compilation
